Tested on: CAKI-1
Test: GI50, drug alone; higher = less potent
Conditions: treatment: drug alone; 5 days
Here the recorded GI50, drug alone is given for each entry.

>  <compound>
CO[C@H]1CC2CC[C@@H](C)[C@@](O)(O2)C(=O)C(=O)N2CCCC[C@H]2C(=O)O[C@H]([C@H](C)C[C@@H]2CCC(OC(=O)C(C)(CO)CO)[C@H](OC)C2)CC(=O)[C@H](C)/C=C(\C)[C@@H](O)[C@@H](OC)C(=O)[C@H](C)C[C@H](C)/C=C/C=C/C=C/1C (stereo in doubt)

>  <assayed.system>
CAKI-1

>  <unit>
µM

>  <relational.operator>
=

>  <GI50, drug alone>
1.27

$$$$
>  <compound>
CCn1c(-c2nonc2N)nc2c(C#CC(C)(C)O)ncc(OC[C@H]3CCCNC3)c21

>  <assayed.system>
CAKI-1

>  <unit>
µM

>  <relational.operator>
=

>  <GI50, drug alone>
5.92

$$$$
>  <compound>
Cl.N=C(N)NC(=N)NCCc1ccccc1 [Phenformin hydrochloride]

>  <assayed.system>
CAKI-1

>  <unit>
µM

>  <relational.operator>
>

>  <GI50, drug alone>
10

$$$$
>  <compound>
O=C(Nc1c[nH]nc1-c1nc2cc(CN3CCOCC3)ccc2[nH]1)NC1CC1

>  <assayed.system>
CAKI-1

>  <unit>
µM

>  <relational.operator>
=

>  <GI50, drug alone>
0.414

$$$$
>  <compound>
COc1ccc(-c2ccc3c(N4CCOC[C@@H]4C)nc(N4CCOC[C@@H]4C)nc3n2)cc1CO

>  <assayed.system>
CAKI-1

>  <unit>
µM

>  <relational.operator>
=

>  <GI50, drug alone>
0.119

$$$$
>  <compound>
O=C1c2ccccc2-c2n[nH]c3cccc1c23

>  <assayed.system>
CAKI-1

>  <unit>
µM

>  <relational.operator>
=

>  <GI50, drug alone>
6.06

$$$$

###

Measured AUC of dose-response viability curve values are reported for all entries that follow.
System: CAKI-1
Assay: AUC of dose-response viability curve, drug alone (arbitrary (AUC of normalised viability)); higher = less growth inhibition
Details: treatment: drug alone; 5 days

>  <compound>
COc1cc2c(Oc3ccc(NC(=O)C4(C(=O)Nc5ccc(F)cc5)CC4)cc3F)ccnc2cc1OCCCN1CCOCC1

>  <AUC of dose-response viability curve>
2.12

$$$$
>  <compound>
CN1C(=O)C(Cc2c[nH]c3ccccc23)NC1=S (centres undefined) [Necrostatin-1]

>  <AUC of dose-response viability curve>
3.5

$$$$
>  <compound>
CC(C)c1ccccc1Cc1cc(C(=O)Nc2ccc(S(=O)(=O)c3ccccc3C(C)(C)C)cc2)c(O)c(O)c1O [TW-37]

>  <AUC of dose-response viability curve>
2.77

$$$$
>  <compound>
O=C1NC(=O)[C@@H](c2cn3c4c(cccc24)CCC3)[C@@H]1c1c[nH]c2ccccc12 [ARQ 197 (Tivantinib)]

>  <AUC of dose-response viability curve>
2.54

$$$$
>  <compound>
CCN1CCN(Cc2ccc(-c3cc4c(N[C@H](C)c5ccccc5)ncnc4[nH]3)cc2)CC1 [AEE788 (NVP-AEE788)]

>  <AUC of dose-response viability curve>
2.81

$$$$
>  <compound>
CS(=O)(=O)O.O=C(Nc1cccc(Cl)c1)Nc1ncc(CCNc2ncnc3ccsc23)s1 [SNS-314]

>  <AUC of dose-response viability curve>
1.36

$$$$
>  <compound>
CCN(CC)CCCCNc1ncc2cc(-c3cc(OC)cc(OC)c3)c(NC(=O)NC(C)(C)C)nc2n1

>  <AUC of dose-response viability curve>
2.27

$$$$
>  <compound>
Clc1ccc(C2(c3ccc(-c4cn[nH]c4)cc3)CCNCC2)cc1 [AT7867]

>  <AUC of dose-response viability curve>
2.8

$$$$
>  <compound>
OCc1ccc(-c2ccc(-c3ccc(CO)s3)o2)s1

>  <AUC of dose-response viability curve>
0.628

$$$$
>  <compound>
CNC(=O)c1ccccc1Sc1ccc2c(/C=C/c3ccccn3)n[nH]c2c1 [Axitinib]

>  <AUC of dose-response viability curve>
2.86

$$$$
>  <compound>
CCO.N#CC(=C(/N)Sc1ccccc1N)/C(C#N)=C(\N)Sc1ccccc1N [U0126-EtOH]

>  <AUC of dose-response viability curve>
3.35

$$$$
>  <compound>
CNC(=O)c1cccc(-c2ccc3c(N4CCOC[C@@H]4C)nc(N4CCOC[C@@H]4C)nc3n2)c1 [AZD2014]

>  <AUC of dose-response viability curve>
1.86

$$$$
>  <compound>
CC(C)(C)Cn1c(N)nc2ccc(-c3[nH]c(C(C)(C)C)nc3-c3ccc(F)cc3)nc21.CS(=O)(=O)O.CS(=O)(=O)O

>  <AUC of dose-response viability curve>
2.63

$$$$
>  <compound>
NC(=O)c1ccc(-c2nc(-c3ccc4c(c3)OCO4)c(-c3ccccn3)[nH]2)cc1

>  <AUC of dose-response viability curve>
3.3

$$$$
>  <compound>
C=CC(=O)Nc1cccc(Sc2nc(Nc3ccc(N4CCN(C)CC4)cc3)ncc2Cl)c1 [WZ8040]

>  <AUC of dose-response viability curve>
2.51

$$$$
>  <compound>
NC(=O)Nc1sc(-c2ccc(F)cc2)cc1C(N)=O [TPCA-1]

>  <AUC of dose-response viability curve>
2.67

$$$$
>  <compound>
CC(C)c1cnn2c(NCc3ccccc3)cc(NCCCCCCN)nc12.Cl [BS-181 HCl]

>  <AUC of dose-response viability curve>
2.84

$$$$
>  <compound>
FC(F)(F)c1ccc(/C=C/c2nc(COc3ccc(CCCCn4ccnn4)cc3)co2)cc1 [Mubritinib (TAK 165)]

>  <AUC of dose-response viability curve>
2.96

$$$$
>  <compound>
Oc1cc(O)cc(/C=C/c2ccc(O)c(O)c2)c1 [Piceatannol]

>  <AUC of dose-response viability curve>
3.58

$$$$
>  <compound>
COC[C@H]1OC(=O)c2coc3c2[C@@]1(C)C1=C(C3=O)[C@@H]2CCC(=O)[C@@]2(C)C[C@@H]1OC(C)=O [Wortmannin]

>  <AUC of dose-response viability curve>
2.45

$$$$
>  <compound>
Cn1cc(-c2ccc3nnc(C(F)(F)c4ccc5ncccc5c4)n3n2)cn1

>  <AUC of dose-response viability curve>
2.4

$$$$
>  <compound>
CC(O)C(=O)O.CC(O)C(=O)O.CN1CCN(c2ccc3nc(-c4c(N)c5c(F)cccc5[nH]c4=O)[nH]c3c2)CC1 [Dovitinib Dilactic acid (TKI258 Dilactic acid)]

>  <AUC of dose-response viability curve>
2.21

$$$$
>  <compound>
CN(C)c1ccc(-c2nc3c(N4CCN(CC(=O)Nc5nccs5)CC4)c(Cl)cnc3[nH]2)cc1

>  <AUC of dose-response viability curve>
2.57

$$$$
>  <compound>
COC(=O)c1ccc2c(c1)NC(=O)/C2=C(\Nc1ccc(N(C)C(=O)CN2CCN(C)CC2)cc1)c1ccccc1 [BIBF1120 (Vargatef)]

>  <AUC of dose-response viability curve>
2.81

$$$$
>  <compound>
C=CC(=O)Nc1ccc2ncnc(Nc3ccc(OCc4cccc(F)c4)c(Cl)c3)c2c1.Cc1ccc(S(=O)(=O)O)cc1 [AST-1306]

>  <AUC of dose-response viability curve>
2.76

$$$$
>  <compound>
CC(C)(C)c1cc(NC(=O)Nc2ccc(-c3cn4c(n3)sc3cc(OCCN5CCOCC5)ccc34)cc2)no1 [Quizartinib (AC220)]

>  <AUC of dose-response viability curve>
2.38

$$$$
>  <compound>
Cc1cc(Nc2cc(CN3CCOCC3)c3nc(C)c(Cc4ccc(Cl)cc4F)n3n2)[nH]n1

>  <AUC of dose-response viability curve>
3.03

$$$$
>  <compound>
COc1cc2nccc(Oc3ccc(NC(=O)Nc4cc(C)on4)c(Cl)c3)c2cc1OC [Tivozanib (AV-951)]

>  <AUC of dose-response viability curve>
2.12

$$$$
>  <compound>
Cc1cc(CN2CCN(c3c(Br)cnc4[nH]c(-c5ccc(N6CCN(C)CC6)cc5)nc34)CC2)no1

>  <AUC of dose-response viability curve>
2.6

$$$$
